- Test system: DU-145 prostate
- test_summary: NCI tumour cell line growth inhibition, 48 h
Classification field: condition met = TGI at or over 3 µM; condition not met = TGI under 3 µM.

Nc1nc2ccc3[nH]ncc3c2c2c1CCCC2 :: condition met
O=c1oc2c/c(=C\c3ccccc3)c(=O)c3cccc1c3-2 :: condition met
Clc1cccc(N2CCN(CCN3CCc4c([nH]c5ccccc45)C3c3cccnc3)CC2)c1 (stereo not given) :: condition met
CNC(=O)c1ccccc1[S+]1c2cccc3cccc(c23)C(=O)N1C (stereo not given) :: condition met
Cc1ccc(C(=O)/C(=C\c2ccc([N+](=O)[O-])cc2)S(=O)Cc2ccc(F)cc2)cc1 (stereo not given) :: condition not met
COC(=O)c1c(O)ccc2c1c1c(n2Cc2ccccc2OC)C(=O)c2ccccc2C1 :: condition met
Oc1ccc2ccccc2c1C1NN=C(c2ccccc2)S1 (stereo not given) :: condition met
COC12OC3CC4(C)C(=CC3OC(OC(C)C1O)C2O)CCC1C4CCC2(C)C(c3ccc(=O)oc3)CCC12O (stereo not given) :: condition not met
CSc1n(Cc2ccc3ccccc3c2)c(C)c[n+]1Cc1ccc2ccccc2c1 :: condition not met
COc1ccc(C2=Nc3c/c(=C\c4c(O)[nH]c5ccc(Cl)cc45)ccc3=N2)cc1 :: condition met
